read-out: growth arrest and DNA damage 45 (GADD45G), GADD45G (gene 10912); assay: LTEA_HepaRG_GADD45G: Life Technologies and Expression Analysis (LTEA) Assay for growth arrest and DNA damage 45 (GADD45G) using HepaRG (AID 2283499); settings: mRNA level, 48 h; actives raise or lower the signal
Active and inactive are the calls of the source. Rule for the calls: active = hit-call score of the fitted dose curve at least 0.9, where 1 is the maximum; inactive = score below 0.9.
Labels: T for active, F for inactive

1) CNc1cnn(-c2cccc(C(F)(F)F)c2)c(=O)c1Cl = F
2) CNC(=O)ON=C(C)SC = F
3) CN(C)[C@@H]1C(=O)C(C(N)=O)=C(O)[C@@]2(O)C(=O)C3=C(O)c4c(O)cccc4[C@@](C)(O)[C@H]3[C@H](O)[C@@H]12 = F
4) CCC(CC)Nc1c([N+](=O)[O-])cc(C)c(C)c1[N+](=O)[O-] = F
5) CCOP(=O)(NC(C)C)Oc1ccc(SC)c(C)c1 (stereo not given) = F
6) CCc1cnc(C2=NC(C)(C(C)C)C(=O)N2)c(C(=O)O)c1 (stereo not given) = F
7) CC(COc1ccc(Oc2ccccc2)cc1)Oc1ccccn1 (stereo not given) = F
8) CSc1nnc(C(C)(C)C)c(=O)n1N = F
9) CC(C)[C@H](C(=O)O[C@H](C#N)c1cccc(Oc2ccccc2)c1)c1ccc(Cl)cc1 = F
10) CSC1=N[C@@](C)(c2ccccc2)C(=O)N1Nc1ccccc1 = T

* * *

Read-out: Glutamate-cysteine ligase regulatory (GCLM), GCLM (gene 2730)
Test: LTEA_HepaRG_GCLM: Life Technologies and Expression Analysis (LTEA) Assay for Glutamate-cysteine ligase regulatory (GCLM) using HepaRG (AID 2283500)
Conditions: mRNA level, 48 h; actives raise or lower the signal
Procedure: LTEA_HepaRG is a cell based, multiplexed-readout assay that uses HepaRG, a human liver cell line, with measurements taken at 48 hours after chemical dosing on a 96-well plate.LTEA_HepaRG_GCLM is one of 102 assay component(s) measured in the LTEA HepaRG cell culture assay. It is a marker of Cell proliferation, survival, death.Data from the assay component LTEA_HepaRG_GCLM was analyzed into 1 endpoint. […]
Active and inactive are the calls of the source. How the source made its calls: active means hit-call score of the fitted dose curve at least 0.9, where 1 is the maximum; inactive means score below 0.9.
Labels: active, inactive

1. CCCOc1nn(C(=O)NS(=O)(=O)c2ccccc2C(=O)OC)c(=O)n1C = inactive
2. CCCCN(CC)c1c([N+](=O)[O-])cc(C(F)(F)F)cc1[N+](=O)[O-] = inactive
3. COP(=O)(OC)OC(Br)C(Cl)(Cl)Br (stereo not given) = inactive
4. CNc1cnn(-c2cccc(C(F)(F)F)c2)c(=O)c1Cl = active
5. C#CCC1=C(C)C(OC(=O)C2C(C=C(C)C)C2(C)C)CC1=O (stereo not given) = inactive
6. CNC(=O)ON=C(C)SC = inactive
7. CNC(=O)ON=C(SC)C(=O)N(C)C = inactive
8. CCCCSP(=O)(SCCCC)SCCCC = inactive
9. CC(C)=CC1C(C(=O)OCN2C(=O)C3=C(CCCC3)C2=O)C1(C)C (stereo not given) = inactive
10. CC[C@H](C)[C@H]1O[C@]2(C=C[C@@H]1C)C[C@@H]1C[C@@H](C/C=C(\C)[C@@H](O[C@H]3C[C@H](OC)[C@@H](O[C@H]4C[C@H](OC)[C@@H](NC)[C@H](C)O4)[C@H](C)O3)[C@@H](C)/C=C/C=C3\CO[C@@H]4[C@H](O)C(C)=C[C@@H](C(=O)O1)[C@]34O)O2 = inactive
11. O=[N+]([O-])c1cc(C(F)(F)F)c(Cl)c([N+](=O)[O-])c1Nc1ncc(C(F)(F)F)cc1Cl = inactive
12. CCOP(=S)(OCC)Oc1ccc2c(C)c(Cl)c(=O)oc2c1 = inactive
13. CCCSP(=O)(OCC)Oc1ccc(Br)cc1Cl (stereo not given) = inactive
14. CCc1cccc(C)c1N(C(=O)CCl)C(C)COC (stereo not given) = inactive
15. CC(C)[C@H](C(=O)O[C@H](C#N)c1cccc(Oc2ccccc2)c1)c1ccc(Cl)cc1 = inactive
